# target-desc: 5-HT6 receptor (Homo sapiens)
# Construct: expressed in transfected cells
# Sequence (P50406 whole entry): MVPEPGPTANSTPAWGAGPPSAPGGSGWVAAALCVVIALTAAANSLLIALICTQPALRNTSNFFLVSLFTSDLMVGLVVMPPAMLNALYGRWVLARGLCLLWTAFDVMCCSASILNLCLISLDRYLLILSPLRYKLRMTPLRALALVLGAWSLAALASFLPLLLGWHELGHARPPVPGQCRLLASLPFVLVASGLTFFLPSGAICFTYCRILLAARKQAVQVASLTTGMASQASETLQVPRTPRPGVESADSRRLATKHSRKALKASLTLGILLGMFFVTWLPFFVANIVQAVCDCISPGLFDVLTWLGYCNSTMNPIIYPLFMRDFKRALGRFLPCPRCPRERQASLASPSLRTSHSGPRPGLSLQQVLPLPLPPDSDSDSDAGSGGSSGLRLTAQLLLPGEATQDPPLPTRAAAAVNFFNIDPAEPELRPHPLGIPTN
# test-name: Binding affinity for the 5-HT6 receptor (3H-LSD displacement, membranes of recombinant cells)
# study-conditions: 100 nM of test compound; 3H-LSD (2 nM); 60 minute incubation at 37° C.; read-out: percent inhibition of binding of the radioligand for the 5-HT6 receptor
measurement-name: inhibition at 0.1 µM

A selection of reference data follows.
compound: O=S(=O)(c1cccc2ccccc12)n1cc(C2=CCN3CCCC3C2)c2cnccc21 (stereo not drawn)
inhibition at 0.1 µM: > 95%
//
compound: O=S(=O)(c1cccc2ccccc12)n1cc(C2CCN3CCCC3C2)c2ccncc21 (single isomer, unassigned)
inhibition at 0.1 µM: > 80%
//
compound: O=S(=O)(c1ccc2ccccc2c1)n1cc(C2CCN3CCCC3C2)c2ncccc21 (stereo not drawn)
inhibition at 0.1 µM: > 95%

Query: Please report the measured inhibition at 0.1 µM for Cc1ccc(S(=O)(=O)n2cc(C3=CCN4CCCC4C3)c3cnccc32)cc1 (stereo not drawn) tested on 5-HT6 receptor (Homo sapiens).
Response: > 80%

---

# target-desc: 5-HT6 receptor (Homo sapiens)
# Construct: expressed in transfected cells
# test-name: Binding affinity for the 5-HT6 receptor (3H-LSD displacement, membranes of recombinant cells)
# study-conditions: 100 nM of test compound; 3H-LSD (2 nM); 60 minute incubation at 37° C.; read-out: percent inhibition of binding of the radioligand for the 5-HT6 receptor
Item-by-item account of inhibition at 0.1 µM

molecule: O=S(=O)(c1ccccc1)n1cc(C2=CCN3CCCC3C2)c2cnccc21 (centres unmarked)
measurement-name: inhibition at 0.1 µM
value-measured: > 90%
//
molecule: O=S(=O)(c1ccc2ccccc2c1)n1cc(C2CCN3CCCC3C2)c2cccnc21 (single isomer, unassigned)
measurement-name: inhibition at 0.1 µM
value-measured: > 80%
//
molecule: O=S(=O)(c1ccc2ccccc2c1)n1cc(C2=CCN3CCCC3C2)c2cccnc21 (centres unmarked)
measurement-name: inhibition at 0.1 µM
value-measured: > 90%
//
molecule: O=S(=O)(c1cccc2ccccc12)n1cc(C2CCN3CCCC3C2)c2ncccc21 (centres unmarked)
measurement-name: inhibition at 0.1 µM
value-measured: > 80%

Next item in the queue.
Query: Retrieve inhibition at 0.1 µM measured for O=C(c1c(Cl)cccc1Cl)n1cc(C2=CCN3CCCC3C2)c2cccnc21 (centres unmarked) and print it.
Response: > 80%
